Exercise: for every item that follows, state its recorded TGI.
- Tested on: T-47D breast
- procedure.text: NCI tumour cell line growth inhibition, 48 h
Give bare numbers, in µM.

Dear colleague, could you send me TGI for each of the items below? Thanks.
1. OB(O)c1ccccc1C#Cc1ccccc1B(O)O
2. CC(=O)Nc1ccc2c3c(cc(O)c2c1)N(C(=O)CCCCC(=O)N1CC(CCl)c2c1cc(O)c1cc(NC(C)=O)ccc21)CC3CCl (centres undefined)
3. CNC(=O)c1cc(Oc2cccc3nc(NC(=O)Nc4cc(C(F)(F)F)cc(C(F)(F)F)c4)ccc23)ccn1

Reply |
1: 83.6; 2: 0.0973; 3: 31.1

Dear colleague, could you send me TGI for each of the items below? Thanks.
1. COc1cc(Cl)cc(-c2nn(-c3cccc(NC(=O)Nc4cccc(C(F)(F)F)c4)c3)cc2-c2ccncc2)c1
2. CC[C@@]1(OC(=O)CN(C)C)C(=O)OCc2c1cc1n(c2=O)Cc2cc3c(N)cccc3nc2-1
3. CC(=O)NC1C(OC(C)C(=O)NC(C(=O)NC(CCC(=O)NCCCNC2c3ccccc3Nc3cccc([N+](=O)[O-])c32)C(N)=O)C(C)C)C(O)C(CO)OC1(C)OCc1ccccc1 (centres undefined)

Reply |
[6.99, 0.868, 4.16]

* * *

- Test system: LOX IMVI melanoma
- procedure.text: NCI tumour cell line growth inhibition, 48 h
metric: TGI

Consider the worked cases shown below.
- molecule: "O=C(Cc1nc2sc3c(c2c(=O)[nH]1)CCCC3)Nc1ccccc1"
  test.system: "LOX IMVI melanoma"
  TGI: "> 100 µM"
- molecule: "CCC1C(C)C=NN1c1nc(N)nc(C(C#N)=Nc2ccc(N(C)C)cc2)n1 (stereo unspecified)"
  test.system: "LOX IMVI melanoma"
  TGI: "15.7 µM"
- molecule: "O=c1[nH]c2cc([N+](=O)[O-])ccc2nc1/C(=N/Nc1ccccc1)C(O)c1ccco1 (stereo unspecified)"
  test.system: "LOX IMVI melanoma"
  TGI: "> 100 µM"

Dear colleague, could you send me TGI for each of the items below? Thanks.
1. c1ccc2c(c1)OCCc1cn[nH]c1-2
2. O=C(CC(O)(C(F)(F)F)C(F)(F)Cl)CC(O)(C(F)(F)F)C(F)(F)Cl (stereo unspecified)
3. Cc1ccc(C(=O)c2sc3nc4c(cc3c2N)CCCC4)c(C)c1

Reply |
["> 100 µM", "7.34 µM", "> 100 µM"]

* * *

- Tested on: MCF7 breast
- procedure.text: NCI tumour cell line growth inhibition, 48 h; in the data active = GI50 below about 0.43 µM; inactive = the rest
In this exercise, the only acceptable responses are active, inactive

Below, 5 compounds whose answers are already recorded.
- smiles.structure: "COc1cccc(/C=C/c2nc3c(cnn3-c3ccccc3)c(=O)[nH]2)c1"
  qualitative.label: "inactive"
- smiles.structure: "O=C1CC[C@H](N2Cc3c(OCc4ccc(CN5CCOCC5)cc4)cccc3C2=O)C(=O)N1"
  qualitative.label: "inactive"
- smiles.structure: "CC1=C(/C=C/C(=O)CC(=O)/C=C/C2=C(C)CCCC2(C)C)C(C)(C)CCC1"
  qualitative.label: "inactive"
- smiles.structure: "O=C(Nc1cccc(-n2cc(-c3ccncc3)c(-c3ccc(O)c(Cl)c3)n2)c1)c1ccc2c(c1)OCCO2"
  qualitative.label: "inactive"
- smiles.structure: "COc1cccc(-c2nn(-c3ccccc3)cc2-c2ccnc(NCCCNC(=O)c3cccc(C(F)(F)F)c3)c2)c1"
  qualitative.label: "inactive"

Ask | So what was the verdict on [N-]=[N+]=NCCCn1c2c(c3ccc([N+](=O)[O-])cc3c1=O)C(=O)c1cc3c(cc1-2)OCO3 in this test?
Reply | active

Ask | So what was the verdict on CCCOc1cc2ccccc2cc1C(=O)Nc1nc(NC)c2c(ccc3nccc32)[nH]1 in this test?
Reply | active

Ask | So what was the verdict on Cc1cc(-c2nnc(/C=C/c3ccc4c(c3)OCO4)o2)n[nH]1 in this test?
Reply | inactive

Ask | So what was the verdict on Cc1ccc(Nc2cc(Cl)c([N+](=O)[O-])cc2[N+](=O)[O-])cc1 in this test?
Reply | inactive

* * *

- Test system: SK-MEL-28 melanoma
- procedure.text: NCI tumour cell line growth inhibition, 48 h
metric: TGI

Consider the worked cases shown below.
- compound: "COC(=O)C1CCC(=O)N1CN(C(C)=O)c1cc(OC)ccc1OC (stereo not drawn)"
  TGI: "> 100 µM"
- compound: "Cc1cc(N(CCC#N)CCC#N)ccc1N=Nc1cc(Cl)ccc1Cl"
  TGI: "21.1 µM"
- compound: "COc1cccc(/C=C/c2nc3c(cnn3-c3ccccc3)c(=O)[nH]2)c1"
  TGI: "> 100 µM"
- compound: "COc1cccc2c1C1(O)C2CCCCCCCCCC12OCCCO2 (stereo not drawn)"
  TGI: "> 100 µM"
- compound: "CC(C)=NNc1snnc1C(N)=O"
  TGI: "> 100 µM"
- compound: "Nc1ccc(-c2cc(C(=O)Nc3nccs3)[nH]c(=S)n2)cc1"
  TGI: "> 100 µM"

Dear colleague, could you send me TGI for each of the items below? Thanks.
1. Cc1ccc(S(=O)(=O)NC(=O)Nc2cccc(S(N)(=O)=O)c2)cc1
2. CCOC(=O)C(Cc1c[nH]c2cc(N(CCO)CCO)ccc12)(NC(C)=O)C(=O)OCC

Reply |
> 100 µM
> 1000 µM

* * *

- Test system: HCT-15 colon
- procedure.text: NCI tumour cell line growth inhibition, 48 h
metric: TGI

Consider the worked cases shown below.
- compound: "N#Cc1c(-c2ccccc2)cc(-c2ccc(N)cc2)[nH]c1=O"
  TGI: "> 100 µM"
- compound: "O=C(O)Cc1ccc(Nc2nc3ccccc3nc2C(=O)O)cc1"
  TGI: "> 100 µM"
- compound: "COc1ccc(NC(=S)NNC(=O)c2nsc3ccccc23)cc1"
  TGI: "> 100 µM"

Dear colleague, could you send me TGI for each of the items below? Thanks.
1. CC[C@@]1(OC(=O)C(N)CCCCN)C(=O)OCc2c1cc1n(c2=O)Cc2cc3ccccc3nc2-1 (stereo not given in full)
2. COC(=O)CCC(=O)N1C/C(=C\c2ccccc2)C(=O)/C(=C/c2ccccc2)C1

Reply |
1. 15.6 µM
2. 2.43 µM

* * *

Exercise: for every item that follows, state its recorded TGI.
- System: HCC-2998 colon
- procedure.text: NCI tumour cell line growth inhibition, 48 h
Give bare numbers, in µM.

Consider the worked cases shown below.
- compound: "NCCCCCNc1noc(Cc2c[nH]c3cc(Br)ccc23)n1"
  test.system: "HCC-2998 colon"
  value.units: "µM"
  TGI: 14.7
- compound: "COc1cccc(-c2nn(-c3ccccc3)cc2-c2ccnc(NCCCNC(=O)c3cccc(C(F)(F)F)c3)c2)c1"
  test.system: "HCC-2998 colon"
  value.units: "µM"
  TGI: 18.2

Dear colleague, could you send me TGI for each of the items below? Thanks.
1. CCCCCCCCCC[C@@H](O)[C@@H]1CC[C@@H]([C@@H]2CC[C@@H]([C@@H](O)CCCCCCCCCC[C@H](O)CC3=CC(C)OC3=O)O2)O1 (some centres undefined)
2. O=C(O)c1cc2ccccc2c2c3c(ccc12)OCO3
3. O=C1/C=C/[C@@H](O)[C@@H]2C[C@@H](O)C[C@H]2/C=C/CCC[C@H](CCc2ccc3ncccc3c2)O1
4. CC[C@@]1(OC(=O)C(N)CCCCN)C(=O)OCc2c1cc1n(c2=O)Cc2cc3ccccc3nc2-1 (some centres undefined)
5. Nc1ccccc1C#C/C=C\C#CC#C/C=C\C#Cc1ccccc1N
6. Cc1coc2c1C(=O)C(=O)c1ccccc1-2

Reply |
9.13
763
4.99
2.11
8.03
3.35

* * *

- Test system: RXF 393 renal
- procedure.text: NCI tumour cell line growth inhibition, 48 h
metric: TGI

- molecule: "O=C(CC(O)(C(F)(F)F)C(F)(F)Cl)CC(O)(C(F)(F)F)C(F)(F)Cl (centres undefined)"
  TGI: "6.58 µM"

Dear colleague, could you send me TGI for each of the items below? Thanks.
1. c1ccc2c(c1)OCCc1cn[nH]c1-2
2. COC(=O)c1cc(OS(=O)(=O)C(F)(F)F)c(=O)n2c1CCCC2
3. O=C1C[C@H](COCc2ccccc2)NC(=O)C[C@H](COCc2ccccc2)NC(=O)C[C@H](COCc2ccccc2)N1
4. COCCOCCOCc1n(Cc2ccc3ccccc3c2)c2ccccc2[n+]1Cc1ccc2ccccc2c1
5. O=C(O)Cc1ccc(Nc2nc3ccccc3nc2C(=O)O)cc1
6. N#Cc1c(C#N)c(-c2ccccc2)n(Cc2ccccc2)c1N
7. CCN(CC)c1c(-c2ccccc2)n[nH]c1C(=O)OC
8. CC(C)(C)OP(=O)(OC(C)(C)C)C(O)c1ccc(/C=C(\C#N)C(N)=O)cc1 (centres undefined)

Reply |
> 100 µM
> 100 µM
27.1 µM
1.58 µM
> 100 µM
> 100 µM
56.9 µM
> 100 µM

Source listed as PubChem BioAssay (NCI).
